Ref: paper PMC5513037

Study System: IRAK4 (Homo sapiens, UniProt Q9NWZ3)
Construct: endogenous in cells
Sequence (Q9NWZ3 whole entry): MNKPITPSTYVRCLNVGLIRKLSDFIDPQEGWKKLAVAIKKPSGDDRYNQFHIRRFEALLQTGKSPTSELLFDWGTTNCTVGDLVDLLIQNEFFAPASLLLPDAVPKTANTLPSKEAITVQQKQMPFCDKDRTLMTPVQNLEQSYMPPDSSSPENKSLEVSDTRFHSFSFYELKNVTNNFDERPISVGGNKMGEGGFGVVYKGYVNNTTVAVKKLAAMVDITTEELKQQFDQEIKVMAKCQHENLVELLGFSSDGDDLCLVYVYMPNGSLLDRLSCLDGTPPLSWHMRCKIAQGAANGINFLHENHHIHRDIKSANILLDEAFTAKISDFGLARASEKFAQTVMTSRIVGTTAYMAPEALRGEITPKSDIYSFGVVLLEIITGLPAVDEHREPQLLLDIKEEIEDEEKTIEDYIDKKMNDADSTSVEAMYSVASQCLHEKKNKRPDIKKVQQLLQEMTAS
Measurement Notes: KAM-matrix competition in K562 lysate
Condition Details: read-out: RB50 (the source's name)
Measure: pIC50
The quantity pIC50 is defined as the negative base-10 logarithm of the molar concentration.

Short answer for N#CCc1ccc(Nc2nc(NCCCN)cc(Nc3cc(C4CC4)[nH]n3)n2)cc1 : pIC50 was 6.04

---

Study System: RPS6KA3 (Homo sapiens)
Construct: endogenous in cells
Sequence (P51812 whole entry): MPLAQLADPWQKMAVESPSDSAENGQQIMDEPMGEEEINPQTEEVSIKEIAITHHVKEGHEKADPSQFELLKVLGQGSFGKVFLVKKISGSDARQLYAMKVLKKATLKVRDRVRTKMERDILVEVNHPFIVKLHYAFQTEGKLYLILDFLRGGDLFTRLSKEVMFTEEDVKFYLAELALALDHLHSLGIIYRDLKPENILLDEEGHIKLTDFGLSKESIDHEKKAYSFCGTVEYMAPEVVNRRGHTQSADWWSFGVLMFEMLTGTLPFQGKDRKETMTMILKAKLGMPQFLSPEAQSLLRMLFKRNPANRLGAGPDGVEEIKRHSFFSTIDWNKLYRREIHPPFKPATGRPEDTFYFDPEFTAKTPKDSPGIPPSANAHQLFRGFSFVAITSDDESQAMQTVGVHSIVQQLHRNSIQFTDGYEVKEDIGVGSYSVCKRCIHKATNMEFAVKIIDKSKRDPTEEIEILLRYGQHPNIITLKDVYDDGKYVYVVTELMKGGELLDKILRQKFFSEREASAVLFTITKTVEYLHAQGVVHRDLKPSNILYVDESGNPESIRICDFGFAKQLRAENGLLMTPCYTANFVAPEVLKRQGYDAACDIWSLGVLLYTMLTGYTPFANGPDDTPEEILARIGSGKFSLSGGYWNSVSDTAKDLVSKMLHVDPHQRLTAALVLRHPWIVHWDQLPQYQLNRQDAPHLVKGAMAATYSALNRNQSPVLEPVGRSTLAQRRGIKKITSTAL
Measurement Notes: KAM-matrix competition in K562 lysate
Condition Details: KAM 0.001-10 uM, read-out: RB50 (the source's name)
pIC50: −log10 of the molar value.
Measure: pIC50

pIC50 value, target or system RPS6KA3 (Homo sapiens), for N#CCc1ccc(Nc2nc(NCCCN)cc(Nc3cc(C4CC4)[nH]n3)n2)cc1 : < 5.00
